- Tgt: T1, CRBN, Q96SW2
- T1 chain: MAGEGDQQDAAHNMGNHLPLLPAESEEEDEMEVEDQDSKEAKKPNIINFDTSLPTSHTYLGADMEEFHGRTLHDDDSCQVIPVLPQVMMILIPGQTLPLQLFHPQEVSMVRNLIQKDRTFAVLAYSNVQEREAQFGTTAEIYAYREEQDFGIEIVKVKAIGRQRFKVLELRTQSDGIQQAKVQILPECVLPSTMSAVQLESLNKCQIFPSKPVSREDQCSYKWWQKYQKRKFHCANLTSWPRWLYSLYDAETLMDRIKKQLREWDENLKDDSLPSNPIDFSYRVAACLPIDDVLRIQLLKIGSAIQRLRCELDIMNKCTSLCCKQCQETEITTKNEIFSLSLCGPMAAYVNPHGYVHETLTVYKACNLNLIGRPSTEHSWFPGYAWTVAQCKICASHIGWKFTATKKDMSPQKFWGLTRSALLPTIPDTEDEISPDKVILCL
- Assay protocol: log2 fold change of degron read counts, EGFP-low vs EGFP+ sorted cells (limma voom), compound-induced degradation; higher = more compound-induced degradation of the degron-EGFP fusion; degrons are variants of IKZF1/3 zinc finger 2; compound dose not given here;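 further: pooled lentiviral library of zinc finger degron-EGFP fusions in mCherry-positive Jurkat cells, FACS-sorted after compound exposure, with degron abundance counted by next-generation sequencing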
- Setup conditions: Jurkat; 18 h; compound: compound 19 (5-tert-butyl-thalidomide)
Over roughly 8,300 sequences, “log2 fold change of degron read counts, EGFP-low vs EGFP+ sorted cells (limma voom), compound-induced degradation” has its median near -1.1; the highest 2% begin near 3.2. The list comes from a sample in which the highest values are over-represented; it also holds close analogues and randomly drawn sequences.
Endpoint label: log2 fold change of degron read counts
The response must contain the number and no unit.

FTCDQCGAIFTQKGNLLRHIKL [46F_47T_49D_50Q_52G_53A_54I_55F_67L_, Q9UKT9] : -3.12
LWCNQCGFPCTQKGNLLRHIKL [46L_47W_49N_50Q_52G_53F_54P_55C_67L_, Q9UKT9] : -0.74
LECEICGFQCTQKGNLLRHIKL [46L_47E_49E_50I_52G_53F_54Q_55C_67L_, Q9UKT9] : -0.896
LDCEICGFQCTQKGNLLRHIKL [46L_47D_49E_50I_52G_53F_54Q_55C_67L_, Q9UKT9] : -0.786
LACEICGFQCTQKGNLLRHIKL [46L_47A_49E_50I_52G_53F_54Q_55C_67L_, Q9UKT9] : 3.16

Prompt line: Param item = LLCEICGFQCTQKGNLLRHIKL [46L_47L_49E_50I_52G_53F_54Q_55C_67L_, Q9UKT9] ; retrieve measured log2 fold change of degron read counts.
Response line: 0.49

Prompt line: Param item = LYCEICGFQCTQKGNLLRHIKL [46L_47Y_49E_50I_52G_53F_54Q_55C_67L_, Q9UKT9] ; retrieve measured log2 fold change of degron read counts.
Response line: 3.53
